Numbers sourced from PubChem BioAssay (NCI).

tested on: HCT-116 colon; assay: NCI tumour cell line growth inhibition, 48 h; in the data active = GI50 below about 0.43 µM; inactive = the rest
Please answer using one outcome listed in yes = active, no = inactive

Below, 3 molecules whose answers are already recorded.
In [3]: df
Out[3]:
                      smiles_representation  assigned_class
0  NS(=O)(=O)c1ccc(-n2ncc3c(Nc4ccccc4)ncnc32)cc1              no
1  Cc1cc(N(CCCNc2ccnc3cc(Cl)ccc23)Cc2ccc3c(c2)OCO3)nc(N2CCCCC2)n1              no
2  NCCCN1CCN(CCCNc2nc3ccccc3c3[nH]c4ccccc4c23)CC1             yes

Now turn to the next molecule.
Q: Tell me the assay call for `N#Cc1nc2c(S(=O)(=O)c3ccccc3)c(N)n(Cc3ccc(Cl)cc3)c2nc1C#N` please.
A: no

###

test system: SNB-19 CNS; test: NCI tumour cell line growth inhibition, 48 h
Reported log10 of TGI values follow for various compounds
In our notation, the value equals log10 of TGI in µM.

Q: Output log10 of TGI of `Cc1cc(N(CCCNc2ccnc3cc(Cl)ccc23)Cc2ccc3c(c2)OCO3)nc(N2CCCCC2)n1`
A: 1.18

Q: Output log10 of TGI of `O=C1C2=C(SCCS2)C(=O)c2c(Sc3ccc(Cl)cc3)c(Sc3ccc(Cl)cc3)c(Sc3ccc(Cl)cc3)c(Sc3ccc(Cl)cc3)c21`
A: 1.95

Q: Output log10 of TGI of `COc1cc(F)c(/C=C/c2cc(/C=C/c3cc(OC)c(OC)cc3F)n(-c3cc(F)cc(F)c3)n2)cc1OC`
A: 0.74

Q: Output log10 of TGI of `CCOc1ccc(/C=C2\NC(=S)N(/C=C3\C(=O)Oc4ccccc4C3=O)C2=O)cc1`
A: 1.78

Q: Output log10 of TGI of `CCN(CC)CCn1c2ccc(OC)cc2c2sc3cc(OC)ccc3c(=O)c21`
A: 1.00

###

system: HOP-92 NSCLC; experiment: NCI tumour cell line growth inhibition, 48 h
Reported GI50 values follow for various compounds

Consider the reported GI50 for these compounds:
                                   compound    result
0  COc1ccc2c(c1)c(-c1ccc(-c3cn(C)c4ccc(OC)cc34)[nH]1)cn2C   2.58 µM
1  CCNNC(=O)[C@@H]1[C@H](c2cc(OC)c(OC)c(OC)c2)c2cc3c(cc2[C@H](O)[C@H]1CO)OCO3  0.433 µM
2      N#Cc1ccc(Oc2cccc(Oc3ccccc3)c2)cc1C#N  > 100 µM

Q: Output GI50 of `N#C/C(=C\c1c(-c2ccccc2)[nH]c2ccccc12)C(=O)c1ccccc1`
A: 4.51 µM

Q: Output GI50 of Fc1ccc2c(c1)C1=C(CO2)C(c2ccc(Cl)cc2)NC(=S)N1 (configuration not stated)
A: 61 µM

Q: Output GI50 of `CCN(CC)CCOC(=O)Cc1cccc2c(=O)cc(-c3ccccc3)oc12`
A: 8.02 µM

Q: Output GI50 of `Cc1cc(C)c(S(=O)(=O)N(CCc2cccc(Br)c2)Cc2ccc(-c3cccc(S(C)(=O)=O)c3)cc2)c(C)c1`
A: > 100 µM

###

system: CAKI-1 renal; test: NCI tumour cell line growth inhibition, 48 h
measured parameter: TGI

Consider the reported TGI for these compounds:
compound	TGI
CS/C(c1ccccc1)=[N+](\[O-])Cc1ccccc1	> 100 µM
CC(=O)OC(C)(C)CCC(=O)[C@](C)(O)[C@H]1[C@H](O)C[C@@]2(C)[C@@H]3CC=C4C(C)=C(OC5OC(CO)C(O)C(O)C5O)C(=O)C[C@@H]4[C@]3(C)C(=O)C[C@]12C (stereo partly drawn)	> 100 µM
CC(=O)[O-].[Zn].c1ccc(/C(=N\Nc2ccccn2)c2ccccn2)cc1	6.33 µM
CCN(CC)c1ccc(N=C2C=C(Cl)C(=O)c3ncccc32)c(C)c1	12 µM

Q: Supply TGI measured with CAKI-1 renal for COCC12CCC(OC)C34C5CC6(O)C(OC)CC(OC(C)=O)(C5C6OC(=O)c5ccccc5)C(C(OC)C13)C4N(C)C2 (stereo not drawn) .
A: > 100 µM

Q: Supply TGI measured with CAKI-1 renal for `Cc1cc(C)c(S(=O)(=O)N(CCc2cccc(Br)c2)Cc2ccc(-c3cccc(S(C)(=O)=O)c3)cc2)c(C)c1` .
A: > 100 µM

Q: Supply TGI measured with CAKI-1 renal for `O=c1oc2c3ccc4cnccc4c3[nH]c2c2ccccc12` .
A: > 100 µM

Q: Supply TGI measured with CAKI-1 renal for `COc1c(C)c(C/C=C(\C)CC/C=C(\C)CC/C=C(\C)CCC=C(C)C)c(OC)c2ccccc12` .
A: > 100 µM

###

Reported TGI values follow for various molecules
system: MDA-MB-435; test: NCI tumour cell line growth inhibition, 48 h

Consider the reported TGI for these molecules:
In [3]: df
Out[3]:
                                   molecule    result
0  COc1ccc2c(c1)c1nn(CCN3CCCCC3)c3ccc4c(=O)n(CCN(C)C)c(=O)n2c4c13  0.088 µM
1  COP(=O)(O)C(N)Cc1c[nH]c2ccccc12 (stereo not drawn)  > 100 µM
2            CCOC(=O)C(=CN1CCNC1=S)C(=O)OCC  > 100 µM
3             CN(CC(=O)O)Cc1oc(CO)cc(=O)c1O  > 100 µM
4  CC1(C)CC([P+](c2ccccc2)(c2ccccc2)c2ccccc2)=NN1  > 100 µM

Q: Output TGI of `Cc1cc(N(CCCNc2ccnc3cc(Cl)ccc23)Cc2ccc3c(c2)OCO3)nc(N2CCCCC2)n1`
A: 3.27 µM

Q: Output TGI of `Cc1cc(N2CCCC2)c([N+](=O)[O-])cc1[N+](=O)[O-]`
A: > 100 µM

###

system: CCRF-CEM leukemia; assay: NCI tumour cell line growth inhibition, 48 h
measured parameter: GI50

In [3]: df
Out[3]:
                                   molecule    result
0  COc1cccc(CCC(=O)c2cc3c(N)c(C(=O)Nc4cccc(Cl)c4C)sc3nc2C)c1  0.437 µM
1  Nc1nccc2c1ncn2C1OC(CO)C(O)C1O (stereo not drawn)  > 100 µM

Okay, now this molecule:
Q: Output GI50 of CCC1(NC(=O)c2cc(F)c(F)c(F)c2F)C(=O)NC(=O)N(C(C)C)C1=O (stereo not drawn)
A: 19.8 µM

###

Reported TGI values follow for various compounds
tested on: K-562 leukemia; assay: NCI tumour cell line growth inhibition, 48 h

>>> df
                                   compound  measured_parameter     result
0  O=C1CS(=O)(=O)C(c2cccc(Oc3ccccc3)c2)N1c1ccccc1 (configuration not stated)                 TGI    60.1 µM
1  CC(C)(C)OC(=O)N1[C@@H]2Cc3ccc(N)cc3[C@@]1(C)c1ccccc12                 TGI    62.6 µM
2  C=C1C(=O)OC2/C=C(\CO)CC/C=C(\CO)CC(OC(=O)C(C)C)C12 (configuration not stated)                 TGI  > 24.2 µM

Q: Output TGI of O=[N+]([O-])c1ccc(N2N=C(c3ccc4ccccc4c3O)CC2c2ccc(Cl)cc2)c([N+](=O)[O-])c1 (configuration not stated)
A: 52 µM

Q: Output TGI of `COc1cc(/C=C\c2ccc(Br)cc2)cc(OC)c1OC`
A: 36.8 µM

Q: Output TGI of CC1(C(=O)O)CCOc2ccccc21 (configuration not stated)
A: > 100 µM

Q: Output TGI of `Clc1cc(-c2ccccc2)nc2ccccc12`
A: > 100 µM

###

tested on: A549 NSCLC; assay: NCI tumour cell line growth inhibition, 48 h
Reported TGI values follow for various molecules

Consider the reported TGI for these molecules:
molecule	TGI
COc1ccc(Cn2cc3c(c2-c2cc(OC)c(OC)c(OC)c2)CCc2cnoc2-3)cc1N	> 100 µM
O=C(O)CCc1ccc2c(c1)CC1(Cc3ccccc3C1)C2	> 100 µM
CC(C)C[C@H](NC(=O)[C@H](Cc1cccc2ccccc12)NS(=O)(=O)c1cccc2cccnc12)B(O)O	> 28.9 µM
O=S(=O)(NC1=NCCN1C(=S)SN1CCn2c1nsc2=S)c1ccccc1Cl	> 100 µM
O=C1CS[C@@](CC(c2ccc(Cl)cc2)c2ccc(Cl)cc2)(c2ccc(Cl)cc2)N1	> 100 µM
Clc1ccc(CNc2nccc(-c3cnn4ncccc34)n2)cc1	> 25 µM

Q: Output TGI of `Cc1ncc(C(=O)Nc2ccc(CN3CCN(C)CC3)c(C(F)(F)F)c2)cc1C#Cc1c(N)ncc2ccccc12`
A: 1.03 µM

Q: Output TGI of `N#Cc1ccc(Oc2cccc(Oc3ccccc3)c2)cc1C#N`
A: > 100 µM

Q: Output TGI of `CCOC(=O)C1=C(Nc2ccc(Br)cc2)OC/C1=N\NC(=O)c1ccccc1O`
A: > 100 µM

Q: Output TGI of CC(=O)OC(C)(C)CCC(=O)[C@](C)(O)[C@H]1[C@H](O)C[C@@]2(C)[C@@H]3CC=C4C(C)=C(OC5OC(CO)C(O)C(O)C5O)C(=O)C[C@@H]4[C@]3(C)C(=O)C[C@]12C (stereo not given in full)
A: > 100 µM

Q: Output TGI of `Cc1ccc(S(=O)(=O)n2ccc(-c3ccc4ccn(S(=O)(=O)c5ccc(C)cc5)c4c3)c2)cc1`
A: > 100 µM

Q: Output TGI of `Cc1cc(N2CCCC2)c([N+](=O)[O-])cc1[N+](=O)[O-]`
A: > 100 µM

Q: Output TGI of `COc1cccc(N=N/C(=N\NC(=O)c2cc(Br)ccc2O)c2ccc(N(CCC#N)CCC#N)cc2OC)c1`
A: > 150 µg/mL

Q: Output TGI of CCCCCCCCCCCCCCCCCC(=O)Nc1ccn(C2CCC(COP(=O)(O)O)O2)c(=O)n1 (stereo not given)
A: > 100 µM

Q: Output TGI of `CCCCn1c2ccccc2c2ccc3c(c21)C(=O)C=CC3=O`
A: > 100 µM

Q: Output TGI of `COc1ccc2c(c1)c1nn(CCN3CCCCC3)c3ccc4c(=O)n(CCN(C)C)c(=O)n2c4c13`
A: 0.0497 µM

Q: Output TGI of `Cc1ccc(C=NC23CC4CC(CC(C4)C2)C3)cc1`
A: > 100 µM

Q: Output TGI of O=C(Nc1nc2ccc([N+](=O)[O-])cc2s1)C(=O)C(C(=O)c1ccncc1)C1OC(=O)c2ccccc21 (stereo not given)
A: > 100 µM

Q: Output TGI of `CC1(C)CC([P+](c2ccccc2)(c2ccccc2)c2ccccc2)=NN1`
A: > 100 µM

Q: Output TGI of `CCc1ccc2nccc(NCCCN(C)C)c2c1[N+](=O)[O-]`
A: > 100 µM

Q: Output TGI of O=C(NC1C2CC3CC(C2)CC1C3)/C(Cl)=C1/Sc2ccccc2NC1=O (stereo not given)
A: > 100 µM
